In this section, each of the compounds is paired with its reported IC50.
- test target: Recombinant human c-Cbl (aa 47-435) (Homo sapiens, UniProt P22681)
- Sequence (P22681 47-435): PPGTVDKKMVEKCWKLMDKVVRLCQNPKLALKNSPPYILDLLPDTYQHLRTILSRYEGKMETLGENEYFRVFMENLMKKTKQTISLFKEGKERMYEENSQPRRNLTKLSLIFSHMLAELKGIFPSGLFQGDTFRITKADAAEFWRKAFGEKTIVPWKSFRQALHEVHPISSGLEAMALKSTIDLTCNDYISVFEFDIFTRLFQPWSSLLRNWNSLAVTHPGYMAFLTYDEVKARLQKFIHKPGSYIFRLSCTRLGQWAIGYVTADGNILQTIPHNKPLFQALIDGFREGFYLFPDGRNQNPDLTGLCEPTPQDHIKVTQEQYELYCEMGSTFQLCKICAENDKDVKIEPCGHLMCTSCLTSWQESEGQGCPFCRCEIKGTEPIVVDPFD
- assay info: c-Cbl Biochemical Assay (TR-FRET)
- conditions used: hc-Cbl Biochemical Assay (TR-FRET); read-out: TR-FRET hcCbl IC50

Reference set, count: 8
• Cn1cnnc1CC1(c2cccc(-c3nc4ccc(Br)c(C(F)(F)F)c4[nH]3)c2)COC1 = 10000 to 50000 nM
• CCN(Cc1cc(C(F)(F)F)c2oc(-c3cccc(-c4ccc(F)cc4-c4nncn4C)c3)nc2c1)CC1(C#N)CCCC1 = 1000 to 10000 nM
• Cn1cnnc1-c1cc(F)ccc1-c1cc(-c2nc3cc(CNCC(C)(C)O)cc(F)c3o2)cc(C2CC2)c1 = < 200 nM
• CC(Cc1nncn1C)c1cccc(-c2nc3ccc(OCCN(C)C)c(C(F)(F)F)c3[nH]2)c1 (stereo not drawn) = 10000 to 50000 nM
• Cn1cnnc1-c1cc(Cl)ccc1-c1cccc(-c2nc3cc(CN[C@@H]4CCC[C@@H]4O)cc(C(F)(F)F)c3o2)c1 = < 200 nM
• CCNc1cc(-c2ccccc2-c2nncn2C)cc(-c2nc3cc(CN4CCC5(CC5)C4)cc(C(F)(F)F)c3[nH]2)n1 = 10000 to 50000 nM
• Cn1cnnc1-c1cc(F)ccc1-c1cccc(-c2nc3cc(CN4CCC5(CC5)C4)cc(C(F)(F)F)c3o2)c1 = 1000 to 10000 nM
• COc1cc(CNCCC2CCC2)cc2nc(-c3cccc(-c4ccc(F)cc4-c4nncn4C)c3)oc12 = < 200 nM

Query :: Quick check: IC50 on Recombinant human c-Cbl (aa 47-435) (Homo sapiens, UniProt P22681), item Cn1cnnc1-c1cc(Cl)ccc1-c1cc(-c2nc3cc(CNCC4(O)CCC4)cc(F)c3o2)nc(C2CC2)c1 ?
Result :: < 200 nM

Query :: Quick check: IC50 on Recombinant human c-Cbl (aa 47-435) (Homo sapiens, UniProt P22681), item CN(C)Cc1cc2nc(-c3cc(-c4ccc(F)cc4-c4nncn4C)cc(C4CC4)n3)oc2c(F)c1F ?
Result :: 200 to 1000 nM

Query :: Quick check: IC50 on Recombinant human c-Cbl (aa 47-435) (Homo sapiens, UniProt P22681), item Cn1cnnc1-c1cc(F)ccc1-c1cccc(-c2nc3cc(CNS(C)(=O)=O)cc(C(F)(F)F)c3o2)c1 ?
Result :: 200 to 1000 nM

Query :: Quick check: IC50 on Recombinant human c-Cbl (aa 47-435) (Homo sapiens, UniProt P22681), item COCCNCc1cc(C(F)(F)F)c2oc(-c3cc(-c4ccc(F)cc4-c4nncn4C)cc(C4CC4)c3)nc2c1 ?
Result :: < 200 nM

meta.source: patent US20250163038A1
